system: RSV A2; assay: Time-of-addition assay and MOI dependency, CPE (methylene blue) in HEp-2; format: cell-based; details: human respiratory syncytial virus, HEp-2, 48 h, read-out: IC50 at treatment time 48 h postinoculation, MOI 0.1, n = 3
MEASUREMENT LABEL: IC50 (nM)
Expressed in nM, but write only the number.

IC50 value, target or system RSV A2, for "Cc1cnc(N2CC3(CCOCC3)C2)c(C(=O)Nc2ccc(C(=O)N3CCc4cc(C(=O)Nc5c(C)cccc5F)sc4-c4ccccc43)cc2)c1" : 2.36

* * *

tested on: RSV A 2001/3-12; test: CPE 2, neutral red 96-well CPE assay in HEp-2; format: cell-based; conditions: human respiratory syncytial virus
Listed next: entries and their corresponding IC50.
Expressed in µM, but write only the number.

compound Nc1ccn([C@@H]2O[C@@](CO)(CCl)[C@@H](O)[C@H]2F)c(=O)n1 [ALS-8112, reference compound] , IC50 observed: 3.2

Now look at this entry.
compound Cc1cnc(N2CC3(CCOCC3)C2)c(C(=O)Nc2ccc(C(=O)N3CCc4cc(C(=O)Nc5c(C)cccc5F)sc4-c4ccccc43)cc2)c1 [PC786] , IC50 observed: 0.0032

* * *

tested on: RSV A USU\v1225; assay: CPE 2, neutral red 96-well CPE assay in HEp-2; type: cell-based; conditions: human respiratory syncytial virus
MEASUREMENT LABEL: pIC50
Field pIC50 (float): negative decimal logarithm of the concentration in molar.

compound Nc1ccn([C@@H]2O[C@@](CO)(CCl)[C@@H](O)[C@H]2F)c(=O)n1 [ALS-8112, reference compound] , pIC50 observed: 6.06

Now look at this entry.
compound "Cc1cnc(N2CC3(CCOCC3)C2)c(C(=O)Nc2ccc(C(=O)N3CCc4cc(C(=O)Nc5c(C)cccc5F)sc4-c4ccccc43)cc2)c1" , pIC50 observed: 8.89

* * *

test: Cell viability in HEp-2 cells (resazurin); conditions: human, HEp-2 cells
Listed next: entries and their corresponding CC50.

compound Nc1ccn([C@@H]2O[C@@](CO)(CCl)[C@@H](O)[C@H]2F)c(=O)n1 [ALS-8112, reference compound] , CC50 observed: > 341 µM

Continuing:
compound "Cc1cnc(N2CC3(CCOCC3)C2)c(C(=O)Nc2ccc(C(=O)N3CCc4cc(C(=O)Nc5c(C)cccc5F)sc4-c4ccccc43)cc2)c1" , CC50 observed: > 14 µM

* * *

test system: PIV3 (C243 strain); test: organism not typed; type: cell-based, parainfluenza virus 3; conditions: PIV3, LLC-MK2 7.1
MEASUREMENT LABEL: IC50

compound "Cc1cnc(N2CC3(CCOCC3)C2)c(C(=O)Nc2ccc(C(=O)N3CCc4cc(C(=O)Nc5c(C)cccc5F)sc4-c4ccccc43)cc2)c1" , IC50 observed: > 14 µM

* * *

test system: RSV A 1997/12-35; assay: CPE 1, resazurin 384-well CPE assay in HEp-2; assay type: cell-based; conditions: human respiratory syncytial virus
Listed next: entries and their corresponding IC50.
Expressed in nM, but write only the number.

molecule Nc1ccn([C@@H]2O[C@@](CO)(CCl)[C@@H](O)[C@H]2F)c(=O)n1 [ALS-8112, reference compound] , IC50 observed: 693

molecule Cc1cnc(N2CC3(CCOCC3)C2)c(C(=O)Nc2ccc(C(=O)N3CCc4cc(C(=O)Nc5c(C)cccc5F)sc4-c4ccccc43)cc2)c1 [PC786] , IC50 observed: 0.35

* * *

system: RSVB 1262; test: microbe, parasite or virus in culture; assay type: cell-based; details: human respiratory syncytial virus; RSVB 1262, clinical; read-out: CPE IC50
MEASUREMENT LABEL: IC50
Provide a numeric answer, followed by its unit.

compound Cc1cnc(N2CC3(CCOCC3)C2)c(C(=O)Nc2ccc(C(=O)N3CCc4cc(C(=O)Nc5c(C)cccc5F)sc4-c4ccccc43)cc2)c1 [PC786] , IC50 observed: 14.5 nM

* * *

system: RSV A2; assay: RSV F protein cell-based ELISA in BEAS-2B cells, washout / nonwashout; details: human respiratory syncytial virus, 2 h exposure then 24-h washout before inoculation, read-out: IC50, F protein expressed on cell surfaces
MEASUREMENT LABEL: IC50 (µM)
Expressed in µM, but write only the number.

compound "Cc1cnc(N2CC3(CCOCC3)C2)c(C(=O)Nc2ccc(C(=O)N3CCc4cc(C(=O)Nc5c(C)cccc5F)sc4-c4ccccc43)cc2)c1" , IC50 observed: 0.000792

Now look at this entry.
compound "NC(=O)c1ncn([C@@H]2O[C@H](CO)[C@@H](O)[C@H]2O)n1" , IC50 observed: 253

* * *

tested on: Hepatitis C virus GT1b replicon; test: microbe, parasite or virus in culture; type: cell-based; details: Huh-7, GT1b replicon
MEASUREMENT LABEL: pIC50
Field pIC50 (float): negative decimal logarithm of the concentration in molar.

pIC50 value, target or system Hepatitis C virus GT1b replicon, for "Cc1cnc(N2CC3(CCOCC3)C2)c(C(=O)Nc2ccc(C(=O)N3CCc4cc(C(=O)Nc5c(C)cccc5F)sc4-c4ccccc43)cc2)c1" : 6.49

* * *

assay: in vitro; details: rhesus monkey
MEASUREMENT LABEL: CC50

compound Cc1cnc(N2CC3(CCOCC3)C2)c(C(=O)Nc2ccc(C(=O)N3CCc4cc(C(=O)Nc5c(C)cccc5F)sc4-c4ccccc43)cc2)c1 [PC786] , CC50 observed: > 14 µM

* * *

molecular target: minigenome construct comprising the L protein, M2-1, N, and P of RSV A2 (Human respiratory syncytial virus A, UniProt P28887)
Sequence (P28887 whole entry): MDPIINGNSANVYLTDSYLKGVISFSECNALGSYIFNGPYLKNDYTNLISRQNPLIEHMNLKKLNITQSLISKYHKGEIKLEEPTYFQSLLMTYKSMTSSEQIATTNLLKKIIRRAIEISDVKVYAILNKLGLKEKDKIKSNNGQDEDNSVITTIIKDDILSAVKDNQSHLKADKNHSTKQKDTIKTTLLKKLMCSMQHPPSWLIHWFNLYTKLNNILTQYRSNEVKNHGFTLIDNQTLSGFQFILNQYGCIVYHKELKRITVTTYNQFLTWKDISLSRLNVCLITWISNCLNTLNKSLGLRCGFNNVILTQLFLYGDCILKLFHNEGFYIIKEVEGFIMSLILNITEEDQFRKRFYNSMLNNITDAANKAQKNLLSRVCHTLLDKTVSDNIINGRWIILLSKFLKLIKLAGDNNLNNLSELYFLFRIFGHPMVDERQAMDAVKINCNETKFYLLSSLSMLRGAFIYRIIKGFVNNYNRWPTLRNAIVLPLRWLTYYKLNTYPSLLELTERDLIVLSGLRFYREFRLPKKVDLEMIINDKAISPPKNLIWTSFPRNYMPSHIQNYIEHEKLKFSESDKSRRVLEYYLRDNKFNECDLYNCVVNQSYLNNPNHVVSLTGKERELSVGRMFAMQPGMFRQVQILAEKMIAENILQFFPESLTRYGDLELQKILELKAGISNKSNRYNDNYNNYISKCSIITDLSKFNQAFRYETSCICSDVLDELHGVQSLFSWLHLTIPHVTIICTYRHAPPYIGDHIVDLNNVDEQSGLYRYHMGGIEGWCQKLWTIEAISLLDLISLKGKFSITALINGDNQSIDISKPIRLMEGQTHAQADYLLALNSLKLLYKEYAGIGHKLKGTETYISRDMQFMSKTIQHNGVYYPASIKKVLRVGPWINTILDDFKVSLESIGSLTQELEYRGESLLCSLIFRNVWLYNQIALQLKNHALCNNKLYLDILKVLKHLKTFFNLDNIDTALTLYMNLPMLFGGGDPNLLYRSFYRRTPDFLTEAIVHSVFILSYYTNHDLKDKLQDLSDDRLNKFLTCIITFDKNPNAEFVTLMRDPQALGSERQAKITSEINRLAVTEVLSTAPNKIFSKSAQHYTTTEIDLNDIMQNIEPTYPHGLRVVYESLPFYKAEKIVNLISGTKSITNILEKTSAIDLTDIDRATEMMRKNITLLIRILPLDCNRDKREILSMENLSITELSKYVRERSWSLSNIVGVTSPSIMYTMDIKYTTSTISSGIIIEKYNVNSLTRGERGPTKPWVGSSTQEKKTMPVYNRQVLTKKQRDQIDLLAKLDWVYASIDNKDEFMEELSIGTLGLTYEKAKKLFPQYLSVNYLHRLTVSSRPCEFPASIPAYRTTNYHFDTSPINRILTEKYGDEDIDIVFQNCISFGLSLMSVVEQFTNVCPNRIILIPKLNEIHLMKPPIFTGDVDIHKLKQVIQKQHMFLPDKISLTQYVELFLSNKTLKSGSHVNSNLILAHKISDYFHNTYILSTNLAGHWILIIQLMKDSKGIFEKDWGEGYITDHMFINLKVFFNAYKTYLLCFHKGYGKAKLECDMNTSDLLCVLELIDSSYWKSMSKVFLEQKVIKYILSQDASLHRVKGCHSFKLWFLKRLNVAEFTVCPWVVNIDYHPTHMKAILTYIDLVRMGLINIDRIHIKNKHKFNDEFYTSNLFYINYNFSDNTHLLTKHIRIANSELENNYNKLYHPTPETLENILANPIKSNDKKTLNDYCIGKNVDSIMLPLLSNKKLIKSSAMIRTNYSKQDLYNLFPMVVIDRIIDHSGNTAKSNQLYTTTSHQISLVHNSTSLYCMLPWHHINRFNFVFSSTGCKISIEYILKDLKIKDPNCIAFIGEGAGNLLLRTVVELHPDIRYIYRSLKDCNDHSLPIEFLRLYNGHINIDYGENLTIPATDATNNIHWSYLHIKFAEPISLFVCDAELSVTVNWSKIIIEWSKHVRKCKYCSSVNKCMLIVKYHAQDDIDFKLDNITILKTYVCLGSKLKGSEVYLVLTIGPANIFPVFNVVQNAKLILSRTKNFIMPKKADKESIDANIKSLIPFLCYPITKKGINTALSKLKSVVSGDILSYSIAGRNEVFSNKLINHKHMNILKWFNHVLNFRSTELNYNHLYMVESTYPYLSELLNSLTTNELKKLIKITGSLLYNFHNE
Sequence (P03421 whole entry, further chain): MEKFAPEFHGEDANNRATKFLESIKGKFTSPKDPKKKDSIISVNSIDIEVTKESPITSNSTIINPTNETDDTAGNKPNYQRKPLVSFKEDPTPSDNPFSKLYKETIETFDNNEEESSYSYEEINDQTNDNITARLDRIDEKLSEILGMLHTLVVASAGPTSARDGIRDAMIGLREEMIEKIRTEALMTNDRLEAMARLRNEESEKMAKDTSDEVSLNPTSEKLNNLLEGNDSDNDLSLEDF
MEASUREMENT LABEL: IC50 (nM)
Expressed in nM, but write only the number.

compound "COc1ccc(CCNCCCN2C(=O)c3c(cc(N)c4[nH]c(-c5ccc(C)c([N+](=O)[O-])c5)nc34)C(C)(C)C2=O)cc1OC" , IC50 observed: 55.3

* * *

test: in vitro; conditions: African green monkey
MEASUREMENT LABEL: CC50

compound "Cc1cnc(N2CC3(CCOCC3)C2)c(C(=O)Nc2ccc(C(=O)N3CCc4cc(C(=O)Nc5c(C)cccc5F)sc4-c4ccccc43)cc2)c1" , CC50 observed: > 14 µM

* * *

system: RSV A Long; assay: microbe, parasite or virus in culture; type: cell-based, respiratory syncytial virus; conditions: human respiratory syncytial virus, HEp-2, plaque reduction, applied 2 h before infection
MEASUREMENT LABEL: IC50

IC50 value, target or system RSV A Long, for "Cc1cnc(N2CC3(CCOCC3)C2)c(C(=O)Nc2ccc(C(=O)N3CCc4cc(C(=O)Nc5c(C)cccc5F)sc4-c4ccccc43)cc2)c1" : < 420 pM

* * *

test system: Rhinovirus 16; test: microbe, parasite or virus in culture; assay type: cell-based, human rhinovirus; conditions: Enterovirus; Rhinovirus 16, HeLa
MEASUREMENT LABEL: IC50

compound "Cc1cnc(N2CC3(CCOCC3)C2)c(C(=O)Nc2ccc(C(=O)N3CCc4cc(C(=O)Nc5c(C)cccc5F)sc4-c4ccccc43)cc2)c1" , IC50 observed: > 14 µM
